# Measured Target: UniProtKB Q9Z282
# Sequence (Q9Z282 whole entry): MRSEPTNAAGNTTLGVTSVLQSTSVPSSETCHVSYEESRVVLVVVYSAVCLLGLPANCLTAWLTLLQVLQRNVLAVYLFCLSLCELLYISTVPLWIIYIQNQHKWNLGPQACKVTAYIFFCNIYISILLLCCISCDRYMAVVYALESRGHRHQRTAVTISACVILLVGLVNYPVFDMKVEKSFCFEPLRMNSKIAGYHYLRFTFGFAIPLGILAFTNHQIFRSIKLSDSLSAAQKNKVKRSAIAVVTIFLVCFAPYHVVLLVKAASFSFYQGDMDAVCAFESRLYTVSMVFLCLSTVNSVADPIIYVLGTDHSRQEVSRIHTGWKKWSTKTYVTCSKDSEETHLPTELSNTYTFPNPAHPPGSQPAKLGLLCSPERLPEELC
# Procedure Summary: β‐arrestin association
# Assay type: cell-based
# Settings: mean ± SD
Would you kindly list pEC50, Mouse GPR132, β‐arrestin for each of these molecules?

Request: System UniProtKB Q9Z282. Read-out pEC50, Mouse GPR132, β‐arrestin. Item CCCCC/C=C\C/C=C\CCCCCCCC(N)=O [Linoleamide, linoleamide] . Report value.
Response: <5 (1)

Request: Recall the reported pEC50, Mouse GPR132, β‐arrestin of CCCCC/C=C\C/C=C\CCCCCCCC(=O)NCC(=O)O [NLGly, N‐linoleoylglycine] when tested on UniProtKB Q9Z282.
Response: 5.3 (1)

Request: Under UniProtKB Q9Z282, report pEC50, Mouse GPR132, β‐arrestin for CCCCCCCCCCCCCCCC(=O)NCC(=O)O [NPGly, N‐palmitoylglycine]
Response: <5 (2)

Request: # return pEC50, Mouse GPR132, β‐arrestin for CCCCCCCCCCCCCCCCCC(=O)NCC(=O)O [NSGly, N‐stereoylglycine] , test system: UniProtKB Q9Z282
Response: <5 (1)

Request: Report pEC50, Mouse GPR132, β‐arrestin on UniProtKB Q9Z282 for this entry: CCCCC/C=C\C=C\C(O)CCCCCCCC(=O)O (stereo not drawn) [9‐HODE, 9‐hydroxyoctadecadienoic acid]
Response: 5.6 ± 0.23 (5)

Request: Consider the molecule CCCCCCCC/C=C\CCCCCCCC(=O)NCC(=O)O [NOGly, N‐oleoylglycine] tested on UniProtKB Q9Z282; state its pEC50, Mouse GPR132, β‐arrestin.
Response: 5.3 ± 0.05 (2)
